# tested.system: α-amylase from porcine pancreas (Sus scrofa, UniProt P00690)
# Construct: A saline suspension of α-amylase from porcine pancreas; purchased Sigma Aldrich (Steinheim, Germany) Lot #SLBN9170V (catalogue number not given); host or cells: porcine pancreas (tissue-derived)
# Sequence (P00690 16-511): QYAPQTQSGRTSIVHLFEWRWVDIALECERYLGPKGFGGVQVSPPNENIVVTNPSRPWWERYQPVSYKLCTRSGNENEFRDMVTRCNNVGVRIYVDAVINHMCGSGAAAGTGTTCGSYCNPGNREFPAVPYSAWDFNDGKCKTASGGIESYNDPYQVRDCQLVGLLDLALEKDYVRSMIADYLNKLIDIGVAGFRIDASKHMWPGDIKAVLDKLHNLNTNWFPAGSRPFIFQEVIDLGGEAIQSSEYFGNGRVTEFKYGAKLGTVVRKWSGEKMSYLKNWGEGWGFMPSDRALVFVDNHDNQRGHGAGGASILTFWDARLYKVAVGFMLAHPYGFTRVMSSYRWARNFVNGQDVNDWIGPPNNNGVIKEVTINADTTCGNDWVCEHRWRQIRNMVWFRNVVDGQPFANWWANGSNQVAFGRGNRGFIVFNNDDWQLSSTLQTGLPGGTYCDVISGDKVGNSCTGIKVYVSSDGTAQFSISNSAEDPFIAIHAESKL
# assay.remarks: α-amylase enzyme activity assay, GalG2CNP conversion, UV/Vis detection of CNP at 405 nm
# Type: biochemical
# run.conditions: (ii) Kic and Kiu by independent fit; [S] 10^6 µM; read-out: IC50 (Cheng−Prussoff, Equation (9))
IC50 values for the compounds below.
property.label: IC50 (µM)

>>> print(df.to_string())
                                   compound  measured_result
0  OC[C@H]1O[C@@H](Oc2cc3c(O)cc(O)cc3[o+]c2-c2ccc(O)cc2)[C@H](O)[C@@H](O)[C@@H]1O [Plg-glc, pelargonidin-3-glucoside]              158
1  OC[C@H]1O[C@@H](Oc2cc3c(O)cc(O)cc3[o+]c2-c2cc(O)c(O)c(O)c2)[C@H](O)[C@@H](O)[C@@H]1O [Dpd-glc, delphinidin-3-glucoside]              270
2  OC[C@H]1O[C@@H](Oc2cc3c(O)cc(O)cc3[o+]c2-c2ccc(O)c(O)c2)[C@H](O)[C@@H](O)[C@@H]1O [Cyd-glc, cyanidin-3-glucoside]              228
3  COc1cc(-c2[o+]c3cc(O)cc(O)c3cc2O[C@@H]2O[C@H](CO)[C@@H](O)[C@H](O)[C@H]2O)ccc1O [Peo-glc, peonidin-3-glucoside]              254

====

# tested.system: α-amylase from porcine pancreas (Sus scrofa, UniProt P00690)
# Construct: A saline suspension of α-amylase from porcine pancreas; purchased Sigma Aldrich (Steinheim, Germany) Lot #SLBN9170V (catalogue number not given); host or cells: porcine pancreas (tissue-derived)
# Sequence (P00690 16-511): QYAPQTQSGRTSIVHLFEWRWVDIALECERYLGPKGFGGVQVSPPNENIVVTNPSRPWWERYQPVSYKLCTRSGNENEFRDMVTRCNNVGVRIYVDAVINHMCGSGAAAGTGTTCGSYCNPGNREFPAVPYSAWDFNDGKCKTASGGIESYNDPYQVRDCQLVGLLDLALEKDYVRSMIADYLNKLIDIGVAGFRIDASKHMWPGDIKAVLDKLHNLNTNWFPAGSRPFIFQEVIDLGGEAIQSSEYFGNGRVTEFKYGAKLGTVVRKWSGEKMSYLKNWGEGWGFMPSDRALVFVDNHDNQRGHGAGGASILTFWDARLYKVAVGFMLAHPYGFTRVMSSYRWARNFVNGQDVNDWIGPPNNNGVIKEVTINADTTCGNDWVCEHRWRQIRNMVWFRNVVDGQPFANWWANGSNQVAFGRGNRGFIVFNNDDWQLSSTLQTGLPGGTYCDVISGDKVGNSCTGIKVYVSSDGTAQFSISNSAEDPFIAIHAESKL
# assay.remarks: α-amylase enzyme activity assay, GalG2CNP conversion, UV/Vis detection of CNP at 405 nm
# Assay type: biochemical
# run.conditions: Michaelis Menten fit; inhibitor c 12,5 µM
property.label: vmaxapp

>>> df
                                   compound     measured_result
0  OC[C@H]1O[C@@H](Oc2cc3c(O)cc(O)cc3[o+]c2-c2cc(O)c(O)c(O)c2)[C@H](O)[C@@H](O)[C@@H]1O [Dpd-glc, delphinidin-3-glucoside]  0,84 ± 0,10 µM/min
1  OC[C@H]1O[C@@H](Oc2cc3c(O)cc(O)cc3[o+]c2-c2ccc(O)c(O)c2)[C@H](O)[C@@H](O)[C@@H]1O [Cyd-glc, cyanidin-3-glucoside]  0,79 ± 0,23 µM/min
2  OC[C@H]1O[C@@H](Oc2cc3c(O)cc(O)cc3[o+]c2-c2ccc(O)cc2)[C@H](O)[C@@H](O)[C@@H]1O [Plg-glc, pelargonidin-3-glucoside]  0,65 ± 0,23 µM/min
3  COc1cc(-c2[o+]c3cc(O)cc(O)c3cc2O[C@@H]2O[C@H](CO)[C@@H](O)[C@H](O)[C@H]2O)ccc1O [Peo-glc, peonidin-3-glucoside]  0,77 ± 0,12 µM/min
